Item-by-item account of % Cys1-IMD after storage 8 Weeks
- assayMethodText: stability of linaclotide compositions with formaldehyde scavenger compounds, Cys1-IMD by RP-HPLC
- Format: physicochemical
- experimentalContext: 40° C., 75% relative humidity, 8 weeks; percent of chromatogram area; labeled canister (formaldehyde stressor)
Peptide text beside a SMILES is read from it.
Kindly answer with a numeric value in %, unit omitted.

Solved cases below.
NCCCC[C@H](N)C(=O)O = 1.27
N[C@@H](Cc1c[nH]cn1)C(=O)O = 0.68
CNC[C@H](O)[C@@H](O)[C@H](O)[C@H](O)CO = 0.81
CC(C)C[C@H](N)C(=O)O [leucine] = 1.26

Which % Cys1-IMD after storage 8 Weeks is reported for this molecule? COC(=O)[C@H](Cc1ccccc1)NC(=O)[C@@H](N)CC(=O)O [aspartame] (H-Asp-Phe-OMe) 1.54

Ok, now NCC(=O)NCC(=O)O [glycine-glycine] (H-Gly-Gly-OH) 1.40

Ok, now CC(C)C[C@H](N)C(=O)O [lyophilized leucine, leucine] 0.78

Ok, now "NC(=O)C[C@H](N)C(=O)O" 1.11
